Just for reference, the supplement of paper PMC6555819 is where these values come from.

tested on: VDR:RXRa (NR concentration 270 nM, RXRa partner concentration 90 nM); assay: PBM binding z-score (relative to random genomic background probes); higher = stronger binding; sequences stand for … in GC…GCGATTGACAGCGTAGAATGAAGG
Output: class label from PBM binding z-score. Mapping: low = under 0.2, medium = from 0.2 up to 2, high = 2 and over

**Query** Band for `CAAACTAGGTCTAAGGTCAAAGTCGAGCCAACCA` ?
**Result** high

**Query** Into which category would you place `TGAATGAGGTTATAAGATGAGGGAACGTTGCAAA` ?
**Result** medium

**Query** Could you tell me which band `GCGACTGGGGCAAAGCAGGTAACCATAAGGTTGG` belongs to?
**Result** low

**Query** Sort `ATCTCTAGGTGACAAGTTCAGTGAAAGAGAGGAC` into one of the categories.
**Result** medium

**Query** Which class holds `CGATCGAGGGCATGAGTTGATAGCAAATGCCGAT` ?
**Result** medium

**Query** Exam item: assign `TGTCAAAGTTCAACGGTAACGTAAGTATCCACAC` to the correct category.
**Result** high

**Query** Entry `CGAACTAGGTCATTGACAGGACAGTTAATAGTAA` belongs to which category?
**Result** high

**Query** // bin(item) where item = `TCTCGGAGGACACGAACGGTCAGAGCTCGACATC`
**Result** low

**Query** Determine which band this sequence sits in: `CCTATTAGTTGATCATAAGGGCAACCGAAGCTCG`
**Result** medium

**Query** Entry `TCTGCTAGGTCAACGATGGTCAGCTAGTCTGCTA` belongs to which category?
**Result** medium

**Query** For this sequence, which bin applies? `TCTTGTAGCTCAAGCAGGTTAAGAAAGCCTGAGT`
**Result** low

====

I'd appreciate it if you could supply PBM binding z-score values for the items below.
tested on: PPARg:RXRa 90nM:30nM, anti-RXR (NR concentration 90 nM, RXRa partner concentration 30 nM); experiment: PBM binding z-score (relative to random genomic background probes); higher = stronger binding; sequences stand for … in GC…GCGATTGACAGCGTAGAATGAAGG

**Query** State PBM binding z-score (PPARg:RXRa 90nM:30nM, anti-RXR (NR concentration 90 nM, RXRa partner concentration 30 nM)) of `GCTATTAGTTGGAAGGGCAACCGAATGATTCTCG` .
**Result** 0.108

**Query** Name the value of PBM binding z-score reported for `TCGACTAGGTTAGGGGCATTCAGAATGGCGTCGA` when tested on PPARg:RXRa 90nM:30nM, anti-RXR (NR concentration 90 nM, RXRa partner concentration 30 nM).
**Result** 2.17

**Query** Lab note: PPARg:RXRa 90nM:30nM, anti-RXR (NR concentration 90 nM, RXRa partner concentration 30 nM) assay, enter PBM binding z-score for `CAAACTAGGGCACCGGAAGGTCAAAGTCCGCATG` here
**Result** 5.06

**Query** Would you please give the reported PBM binding z-score of `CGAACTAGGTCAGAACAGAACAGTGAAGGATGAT` with PPARg:RXRa 90nM:30nM, anti-RXR (NR concentration 90 nM, RXRa partner concentration 30 nM)?
**Result** 3.74

**Query** Please report PBM binding z-score with PPARg:RXRa 90nM:30nM, anti-RXR (NR concentration 90 nM, RXRa partner concentration 30 nM) for item `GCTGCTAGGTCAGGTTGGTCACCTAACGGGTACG` .
**Result** 0.22

**Query** Recall the reported PBM binding z-score of `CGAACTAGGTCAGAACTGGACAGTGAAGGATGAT` when tested on PPARg:RXRa 90nM:30nM, anti-RXR (NR concentration 90 nM, RXRa partner concentration 30 nM).
**Result** 3.68

**Query** Output reported PBM binding z-score of the sequence `CCTTGTTGGTCAAGGTCACACACGCTATAGGTAC` on PPARg:RXRa 90nM:30nM, anti-RXR (NR concentration 90 nM, RXRa partner concentration 30 nM).
**Result** 2.69

**Query** Report measured PBM binding z-score on PPARg:RXRa 90nM:30nM, anti-RXR (NR concentration 90 nM, RXRa partner concentration 30 nM); entry: `TCTGCTAGGTAAGTTGGTCAGCTAACGAGCTGCC`
**Result** 0.642

**Query** Lab note: PPARg:RXRa 90nM:30nM, anti-RXR (NR concentration 90 nM, RXRa partner concentration 30 nM) assay, enter PBM binding z-score for `AGAATGAGGTTGTTAAGATCAGGGAATTGCGGTC` here
**Result** -0.0831

**Query** Enter measured PBM binding z-score, system PPARg:RXRa 90nM:30nM, anti-RXR (NR concentration 90 nM, RXRa partner concentration 30 nM), for the sequence shown: `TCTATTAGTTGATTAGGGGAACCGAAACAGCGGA`
**Result** 2.94

**Query** // fetch PBM binding z-score; item: `GGAACGAGGGCACTCGAGTTGATAGCATGGCGAT` ; system: PPARg:RXRa 90nM:30nM, anti-RXR (NR concentration 90 nM, RXRa partner concentration 30 nM)
**Result** 0.362

**Query** Provide the reported PBM binding z-score (system: PPARg:RXRa 90nM:30nM, anti-RXR (NR concentration 90 nM, RXRa partner concentration 30 nM)) for `ATCGAAAGCTCGAAGGTGAGTATACCCACCCGAA`
**Result** -0.372

====

So I've got a bunch of sequences here, and I need their PBM binding z-score values.
tested on: LXRb homodimer (NR concentration 270 nM); test: PBM binding z-score (relative to random genomic background probes); higher = stronger binding; sequences stand for … in GC…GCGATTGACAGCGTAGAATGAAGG
Please give the numeric answer without any surrounding text.

**Query** Look up PBM binding z-score of `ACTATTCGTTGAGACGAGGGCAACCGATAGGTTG` and report it.
**Result** 0.215

**Query** Report measured PBM binding z-score; entry is `ATATGTAGGTTAAGGGGCATTCAGGTTGGTTCGC`
**Result** 1.48

**Query** State its PBM binding z-score: `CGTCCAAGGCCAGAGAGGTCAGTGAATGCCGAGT`
**Result** -0.859

**Query** For the sequence `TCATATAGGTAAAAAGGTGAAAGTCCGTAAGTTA` , give its measured PBM binding z-score value.
**Result** 0.394

**Query** Quick one: give measured PBM binding z-score for `CCTAGCAGGCCAATCTGGGTGACTCAAGGCTTGA`
**Result** -0.85

**Query** Output PBM binding z-score of `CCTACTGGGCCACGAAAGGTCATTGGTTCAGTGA`
**Result** 0.215

**Query** Look up PBM binding z-score of `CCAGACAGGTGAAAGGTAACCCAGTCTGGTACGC` and report it.
**Result** -0.0532

**Query** Tell us which PBM binding z-score value is on record for `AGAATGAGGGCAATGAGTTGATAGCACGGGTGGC`
**Result** -0.286

**Query** Note PBM binding z-score for the sequence shown: `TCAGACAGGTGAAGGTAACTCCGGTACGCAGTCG`
**Result** -0.314

**Query** Tell me measured PBM binding z-score for `CTCGAAAGGTCGGTTGAGGTGAGTGTACGGATAA` please.
**Result** -0.0633

**Query** Return PBM binding z-score for the following sequence: `GTAACGAGGGCAAGTTGATAGCAGAGTTTGATGG`
**Result** 0.052

**Query** Given `ATCTCTAGGCAAAGTTCAGTGAAAGATCGATAGA` , respond with its PBM binding z-score.
**Result** 0.16

====

test system: RXRa DBDmut IVT, anti-RXR (DBD mutation: RXRa K156A/R161A, NR concentration 90 nM); test: PBM binding z-score (relative to random genomic background probes); higher = stronger binding; sequences stand for … in GC…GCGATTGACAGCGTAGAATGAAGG
measurement.kind: PBM binding z-score

**Query** Look up and state reported PBM binding z-score for `GCTGACAGGTGAAACGCAGGTAACTCAGGGTGGC`
**Result** -0.702

**Query** Input `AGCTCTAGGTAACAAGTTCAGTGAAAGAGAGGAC` , output reported PBM binding z-score.
**Result** 0.916

**Query** Please give measured PBM binding z-score of the following entry: `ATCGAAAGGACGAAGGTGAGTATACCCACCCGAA`
**Result** -0.397

**Query** Recall and state the measured PBM binding z-score for `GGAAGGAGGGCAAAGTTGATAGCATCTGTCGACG` .
**Result** 1.37

**Query** Tell me measured PBM binding z-score for `GCGACTGGGGCAAAGCACGTTACCATAAGGTTGG` please.
**Result** -0.0988

**Query** Identify the reported PBM binding z-score for the following entry. `CCTTACGGGTCACTACAGGTTATAGCATCGGAGT`
**Result** 1.7
